For each entry below, report its cytotoxicity at 10 µM value.
PROTOCOL_DETAILS: Toxicity liver stage against HepG2, at 10uM
Type: cell-based
Parameters: test concentration 10 uM, cell line HepG2-A16-CD81EGFP
EXPERIMENTAL_SETUP: human, HepG2-A16-CD81EGFP cells; read-out: INHIBITION
Just the number please, in %, no unit attached.

stdin: What measured cytotoxicity at 10 µM goes with Cn1nc2c(cc1=O)CN(Cc1coc(-c3ccc(F)cc3)n1)CC2 ?
stdout: -11.5

stdin: What measured cytotoxicity at 10 µM goes with Cc1nc(CO[C@H]2CN(Cc3cccs3)[C@@H]3COC[C@H]23)cs1 ?
stdout: -2.19

stdin: What measured cytotoxicity at 10 µM goes with O=C(NCC1CCCCO1)c1ccc(-c2cccs2)[nH]c1=O (configuration not stated) ?
stdout: -7.03

stdin: What measured cytotoxicity at 10 µM goes with CO[C@@H]1CN(c2ccccc2)S(=O)(=O)[C@@]12CCN(Cc1ccccc1)C2 ?
stdout: 3.51

stdin: What measured cytotoxicity at 10 µM goes with CCC(CC)CN1C[C@@H]2OCCN(Cc3cnn(C)c3)[C@@H]2C1 ?
stdout: -144

stdin: What measured cytotoxicity at 10 µM goes with CNc1cccc(CC2COCCN(C(=O)c3cnn(C)c3)C2)n1 (configuration not stated) ?
stdout: 2.64

stdin: What measured cytotoxicity at 10 µM goes with CCOc1ncccc1NC(=O)c1ccc(C(C)=O)s1 ?
stdout: 2.99

stdin: What measured cytotoxicity at 10 µM goes with O=C(c1ccc(N2CCCC2)nc1)N1CCCC(c2nccs2)C1 (configuration not stated) ?
stdout: 15.4

stdin: What measured cytotoxicity at 10 µM goes with CCc1nc(NS(=O)(=O)c2ccc(F)cc2C)no1 ?
stdout: -10.9

stdin: What measured cytotoxicity at 10 µM goes with CCn1c(CC2CCN(S(=O)(=O)Cc3ccccc3)CC2)nn(C)c1=O ?
stdout: -2.43

stdin: What measured cytotoxicity at 10 µM goes with c1ccc2c(N3CCCC3Cn3cccn3)ncnc2c1 (configuration not stated) ?
stdout: 7.94

stdin: What measured cytotoxicity at 10 µM goes with O=C(c1cccc(Cl)c1)N1CCCn2c(CN3CCCCC3)nnc2C1 ?
stdout: 4.01

stdin: What measured cytotoxicity at 10 µM goes with CCOc1ccnc(N2CCN(C(=O)c3ccncc3)CC2)n1 ?
stdout: -4.6

stdin: What measured cytotoxicity at 10 µM goes with COc1cccc(-c2n[nH]c3c2CN(C(=O)c2oc(C)cc2C)CC3)c1 ?
stdout: -3.17

stdin: What measured cytotoxicity at 10 µM goes with Cc1n[nH]cc1C(=O)NCc1cccnc1N1CCc2ccccc2C1 ?
stdout: 8.81

stdin: What measured cytotoxicity at 10 µM goes with O=S(=O)(C1CC1)N1CCOC2(CCCN(c3ccccc3)C2)C1 (configuration not stated) ?
stdout: -4.54

stdin: What measured cytotoxicity at 10 µM goes with CN(Cc1cccc(F)c1)C(=O)CS(=O)(=O)Cc1c(Cl)cccc1Cl ?
stdout: -2.81

stdin: What measured cytotoxicity at 10 µM goes with CN(C(=O)c1cccc(OCC(F)F)n1)c1ccc2c(c1)CCO2 ?
stdout: 43

stdin: What measured cytotoxicity at 10 µM goes with O=C(Nc1ccc(F)cc1)N(CCC(F)(F)F)C[C@H](O)CO ?
stdout: -7.8

stdin: What measured cytotoxicity at 10 µM goes with C=C(C)COc1ccccc1C(=O)NCc1nc(C)cc(=O)[nH]1 ?
stdout: -3.7

stdin: What measured cytotoxicity at 10 µM goes with CCNC(=O)NC(=O)CN1CCC(c2c[nH]c3ccc(OC)cc23)CC1 ?
stdout: -12.9

stdin: What measured cytotoxicity at 10 µM goes with CN(Cc1ccc(Cl)s1)C(=O)Nc1ccc(N(C)C)nc1 ?
stdout: -1.73

stdin: What measured cytotoxicity at 10 µM goes with CC(=O)N1CCC2(CC1)c1ncc(-c3cccnc3)n1CCN2C ?
stdout: -94

stdin: What measured cytotoxicity at 10 µM goes with N#CC1(NC(=O)c2ccn(-c3ccccc3Cl)n2)CCSC1 (configuration not stated) ?
stdout: 0.462

stdin: What measured cytotoxicity at 10 µM goes with Cc1nc(NC(=O)N2CCCC(C(C)(C)O)C2)nn1C (configuration not stated) ?
stdout: 13.5

stdin: What measured cytotoxicity at 10 µM goes with Cc1ccc(C(=O)N2CCN(c3ncnc4nc(N)ccc34)CC2)o1 ?
stdout: 7.55

stdin: What measured cytotoxicity at 10 µM goes with O=C(Nc1cc(C(F)(F)F)c[nH]c1=O)C1CCNCC1 ?
stdout: 6.01

stdin: What measured cytotoxicity at 10 µM goes with Cn1cnnc1C1CCCN(C(=O)NCc2ccccn2)C1 (configuration not stated) ?
stdout: 2.83

stdin: What measured cytotoxicity at 10 µM goes with CN(Cc1cn2c(n1)CN(C(=O)c1cccn1C)CC2)Cc1ccco1 ?
stdout: 2.75

stdin: What measured cytotoxicity at 10 µM goes with CN(C)c1cc(CNC(=O)Nc2nncs2)ccn1 ?
stdout: -20.5

stdin: What measured cytotoxicity at 10 µM goes with COc1ccc(CNc2nc(N3CCOCC3)ns2)cc1 ?
stdout: -4.77

stdin: What measured cytotoxicity at 10 µM goes with COCCN1CCc2cc(C(=O)NC(C)C)c(NCC3CC3)nc2CC1 ?
stdout: 3.22

stdin: What measured cytotoxicity at 10 µM goes with Cn1cc(-c2c(C#N)c(N)nc3c2CCc2[nH]ccc2-3)cn1 ?
stdout: -4.37

stdin: What measured cytotoxicity at 10 µM goes with CSc1nnc(C2CCN(C(=O)N3CCOCC3)CC2)n1C(C)C ?
stdout: 3.8

stdin: What measured cytotoxicity at 10 µM goes with Cc1cnn(CC(C)NCc2ccncc2)c1 (configuration not stated) ?
stdout: -2.81

stdin: What measured cytotoxicity at 10 µM goes with CN(C)C(=O)CN1CCO[C@H]2CN(Cc3cccc(F)c3)C[C@H]21 ?
stdout: -97.2

stdin: What measured cytotoxicity at 10 µM goes with CN1CCN(C(=O)c2cc(-c3cnc(N4CCCC4)nc3)cn2C)CC1 ?
stdout: -1.43

stdin: What measured cytotoxicity at 10 µM goes with Cc1ccnc(NCc2cn3nc(C)sc3n2)n1 ?
stdout: -0.449

stdin: What measured cytotoxicity at 10 µM goes with Cc1ccc(N2CCCC(NCCCS(C)(=O)=O)C2)nn1 (configuration not stated) ?
stdout: 0.833

stdin: What measured cytotoxicity at 10 µM goes with CN(C)C(=O)N1CCC(C2C(=O)Nc3ccccc32)CC1 (configuration not stated) ?
stdout: 11.9

stdin: What measured cytotoxicity at 10 µM goes with CCN(CC)S(=O)(=O)CCNc1nnc(C(C)C)s1 ?
stdout: 7.2

stdin: What measured cytotoxicity at 10 µM goes with CC(C)S(=O)(=O)c1ccccc1C(=O)NCC1Cc2ccccc2O1 (configuration not stated) ?
stdout: 5.87

stdin: What measured cytotoxicity at 10 µM goes with CN(C)c1cnn(CC(=O)N2CCN(c3ccccc3)CC2)c(=O)c1 ?
stdout: -13.8

stdin: What measured cytotoxicity at 10 µM goes with CN1CCC(N(C)C(=O)Nc2ccc(Cl)cc2)CC1 ?
stdout: -0.211

stdin: What measured cytotoxicity at 10 µM goes with CCOc1c(F)cccc1C(=O)N(C)CCn1cccn1 ?
stdout: 3.76

stdin: What measured cytotoxicity at 10 µM goes with Cc1csc(CCCNC(=O)[C@H]2CNC[C@@H](C(=O)N3CCCC3)C2)n1 ?
stdout: -15.9

stdin: What measured cytotoxicity at 10 µM goes with O=C1CC2(CCN(Cc3cccnc3)C2)CN1c1cncnc1 (configuration not stated) ?
stdout: -65.7
